system: Recombinant HLA-DRB1*0101 protein (human)
measuredProperty: IC50

binder: ENRSWYLTENIQCFLPNPAG [FVIII581-600,593C peptide]
measuredProperty: IC50
result: 50 µM
